Catalogue of inhibition at 0.1 µM values
molecular target: PDE4B2 (Homo sapiens, UniProt Q07343); assay: biochemical; settings: read-out: PDE4B2 Enzyme Inhibition % @100 nM
Sequence (Q07343 1-564 isoform Q07343-2, species assumed): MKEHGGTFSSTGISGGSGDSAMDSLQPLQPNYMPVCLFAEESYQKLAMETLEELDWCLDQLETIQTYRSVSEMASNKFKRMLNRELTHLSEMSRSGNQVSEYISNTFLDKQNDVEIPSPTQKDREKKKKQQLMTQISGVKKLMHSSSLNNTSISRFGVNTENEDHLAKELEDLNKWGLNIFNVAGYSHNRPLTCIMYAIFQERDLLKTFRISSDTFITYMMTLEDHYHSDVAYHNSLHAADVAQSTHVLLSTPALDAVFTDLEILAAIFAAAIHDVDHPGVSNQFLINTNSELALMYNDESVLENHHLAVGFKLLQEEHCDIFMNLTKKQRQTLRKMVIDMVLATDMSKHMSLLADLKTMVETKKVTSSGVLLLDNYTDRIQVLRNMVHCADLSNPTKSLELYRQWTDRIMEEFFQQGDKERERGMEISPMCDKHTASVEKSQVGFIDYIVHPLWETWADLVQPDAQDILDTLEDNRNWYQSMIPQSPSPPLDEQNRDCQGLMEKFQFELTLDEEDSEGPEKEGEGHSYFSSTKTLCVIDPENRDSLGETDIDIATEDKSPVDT
Write it as a number; the unit % goes unstated.

Compound	Metric	Result unit	Assay result
[O-][S+]1CCc2nc(N3Cc4ccc(C(F)(F)F)cc4C3)nc(NC3(CO)CCC3)c21 (centres unmarked)	inhibition at 0.1 µM	%	101

Input line: Find the recorded inhibition at 0.1 µM belonging to Cn1nc2c(c1Cl)CN(c1nc3c(c(NC4(CO)CCC4)n1)[S+]([O-])CC3)CC2 (centres unmarked) and report it.
Output line: 97.5

Input line: Continue with O=[N+]([O-])c1ccc2c(c1)CN(c1nc3c(c(NC4(CO)CCC4)n1)[S+]([O-])CC3)C2 (centres unmarked)
Output line: 98.2

Input line: Continue with [O-][S+]1CCc2nc(N3CCc4ccc(Br)cc4CC3)nc(NC3(CO)CCC3)c21 (centres unmarked)
Output line: 100

Input line: Continue with [O-][S+]1CCc2nc(N3CCc4ccsc4C3)nc(NC3(CO)CCC3)c21 (centres unmarked)
Output line: 99

Input line: Continue with [O-][S+]1CCc2nc(N3CCc4sc(Br)cc4C3)nc(NC3(CO)CCC3)c21 (centres unmarked)
Output line: 99.9

Input line: Continue with [O-][S+]1CCc2nc(N3Cc4ccc(Cl)cc4C3)nc(NC3(CO)CCC3)c21 (centres unmarked)
Output line: 98.6

Input line: Continue with COc1ccc2c(c1)CCN(c1nc3c(c(NC4(CO)CCC4)n1)[S+]([O-])CC3)CC2 (centres unmarked)
Output line: 100
